Record form. Attribute: EC50. Fill in for each entry.
tested target: norepinephrine transporter (Homo sapiens, UniProt P23975)
Sequence (P23975 whole entry): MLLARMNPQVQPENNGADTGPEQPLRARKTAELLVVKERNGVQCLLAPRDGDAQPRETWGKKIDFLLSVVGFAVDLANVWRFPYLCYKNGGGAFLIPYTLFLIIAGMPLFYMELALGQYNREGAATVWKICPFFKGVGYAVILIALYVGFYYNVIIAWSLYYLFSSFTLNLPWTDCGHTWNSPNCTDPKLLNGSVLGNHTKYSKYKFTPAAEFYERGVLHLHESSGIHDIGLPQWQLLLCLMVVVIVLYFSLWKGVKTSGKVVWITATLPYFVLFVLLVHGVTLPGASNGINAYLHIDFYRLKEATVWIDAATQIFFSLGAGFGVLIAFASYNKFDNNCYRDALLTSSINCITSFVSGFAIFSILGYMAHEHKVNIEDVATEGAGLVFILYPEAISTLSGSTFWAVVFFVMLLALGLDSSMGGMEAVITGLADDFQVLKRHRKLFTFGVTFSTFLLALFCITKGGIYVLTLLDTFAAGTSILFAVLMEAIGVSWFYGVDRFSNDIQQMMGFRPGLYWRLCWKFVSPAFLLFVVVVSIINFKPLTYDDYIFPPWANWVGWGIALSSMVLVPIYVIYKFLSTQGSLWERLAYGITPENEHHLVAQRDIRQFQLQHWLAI
assay method text: Functional activity, norephinephrine uptake inhibition in MDCK cell lines
Assay type: cell-based

Query: // EC50 lookup, key: OC(CN1CCC[C@@H](CCc2ccccc2)C1)c1ccc(Cl)cc1 (stereo partly shown)
Response: < 10 nM

Query: // EC50 lookup, key: `Clc1ccc(C2(CN3CCC[C@@H](CNc4ccccc4)C3)CCC2)cc1`
Response: < 1000 nM

Query: // EC50 lookup, key: OC(CN1CCCC(COc2ccc(C(F)(F)F)cc2)C1)C1(c2ccccc2OC(F)(F)F)CCC1 (single isomer, unassigned)
Response: > 1000 nM

Query: // EC50 lookup, key: `O[C@H](CN1CCC[C@H](COc2ccc(C(F)(F)F)cc2)C1)C1(c2ccc(Cl)cc2)CCC1`
Response: < 1000 nM
